Where do the numbers come from? From patent US9546194B2.

Assay: Body weight change in ob/ob mouse
Assay type: in vivo
Conditions: ob/ob mice; 5 or 10 mg/kg ip every 3 days, 4 doses; % change in body weight vs study day 0, up to 30 days
Procedure: To determine in vivo efficacy of the aminosteroid analogues an ob/ob (Lep^ob) mouse model was used. Ob/ob mice are extensively used for screening of antidiabetic and/or anti-obesity agents. Ob/ob mice were treated with either saline or 5 or 10 mg/kg aminosteroid analogue every 3 days for a total of 4 doses via ip injection. Body weight, glucose tolerance and fasting blood glucose levels were measured for each group during the study. Each group had at least an N of 4 animals. […]
Measured % BW Nader by item
Readout Label: % BW Nader (%)

1. COC(=O)CC[C@@H](C)[C@H]1CCC2C3C(CC[C@@]21C)[C@@]1(C)CC[C@@H](NCCCCNCc2cccnc2)C[C@@H]1C[C@H]3O (some centres unmarked) :: 1.6
2. COC(=O)CC[C@@H](C)[C@H]1CCC2C3CC[C@@H]4C[C@H](NCc5ccccn5)CC[C@]4(C)C3C[C@H](O)[C@@]21C (some centres unmarked) :: 0.4
3. CC(C)[C@@H](CC[C@@H](C)[C@H]1CC[C@H]2[C@@H]3[C@H](O)C[C@H]4C[C@@H](NCCCNCCCCNCCCN)CC[C@]4(C)[C@H]3CC[C@]12C)OS(=O)(=O)O [MSI-1436, reference compound] :: −52.6
4. COC(=O)CC[C@@H](C)[C@H]1CCC2C3C(CC[C@@]21C)[C@@]1(C)CC[C@H](NCCCCNCc2cccnc2)C[C@@H]1C[C@H]3O (some centres unmarked) :: −0.9
5. COC(=O)CC[C@@H](C)[C@H]1CCC2C3C(CC[C@@]21C)[C@@]1(C)CCC(NCCNC(C)C)C[C@@H]1C[C@H]3NS(C)(=O)=O (some centres unmarked) :: 0.0
